- System: NCI/ADR-RES ovarian
- test name: NCI-60 one-dose screen, 48 h (100 = growth as untreated, 0 = no growth, -100 = all killed)
- condition info: 10 µM unless noted
About 83,000 compounds went through this panel and 20% of them were active in at least one assay; those are over-represented in the sample as a whole.
property: growth (%)
One number for each entry, in %.

In the examples that follow, each entry is paired with its recorded growth.
>>> df
                                test_smiles  readout_units  numeric_value
0  COc1cc2nc(-c3ccc(-c4nn[nH]n4)cc3)[nH]c(=O)c2cc1OC              %            101
1  COc1cccc2c1C(=O)c1c(O)c3c(c(O)c1C2=O)C[C@@](O)(C(=O)CO)C[C@@H]3O[C@H]1C[C@H](N)[C@@H](O)[C@H](C)O1              %           70.5
2  CC(C)(C)OC(=O)N1C/C(=C\c2ccoc2)C(=O)/C(=C/c2ccoc2)C1              %           97.6
3           O=C(Nc1cccc(Cl)c1)c1cc(Cl)ccc1O              %           2.78
4  Cc1ccc2nc3c(cc2c1)CSc1nnc(-c2ccc[nH]c2=S)n1N3              %           93.4

Ask | Please look at this compound and report its growth: `CCN(CC)CCSCCCNc1c(C)cnc2cc(Cl)ccc12`
Reply | 82.5

Entry source: PubChem BioAssay (NCI)
